target: h-TGR5 (Homo sapiens, UniProt Q8TDU6); construct: expressed in transfected cells; assay: TGR5 cAMP Assay using Cisbio cAMP Dynamic2 htrf kit (hTGR5CRE-luc HEK 293 cells); type: cell-based; conditions: h-TGR5 cAMP EC50, Table 1; read-out: cAMP (EC50)
PARAMETER_MEASURED: EC50

CC(C)(c1ccc(Cl)c(Cl)c1)c1cnc(S(=O)(=O)NCc2c(F)cccc2Cl)n1-c1ccc(F)cc1 : 100 to 1000 nM
O=C(O)c1cc(F)c(CSc2ncc(C3(c4ccc(Cl)c(Cl)c4)CC3)n2-c2ccc(F)cc2)c(F)c1 : 100 to 1000 nM
COc1cc(-n2c(C(C)(C)c3ccc(S(N)(=O)=O)c(Cl)c3)cnc2SCc2ccc(C(=O)NCCS(=O)(=O)O)cc2F)ccc1F : < 100 nM

Query :: Query EC50 for COCC1CCCN1NC(=O)NS(=O)(=O)c1ccc(CSc2ncc(C(C)(C)c3ccc(Cl)c(OC)c3)n2-c2ccc(F)cc2)c(Cl)c1 (stereo in doubt)
Result :: 100 to 1000 nM

Query :: State, in one line, measured EC50 of CC(C)(c1ccc(C(N)=O)c(Cl)c1)c1cnc(SCc2ccc(F)cc2Cl)n1-c1ccc(F)cc1
Result :: < 100 nM

Query :: Return the recorded EC50 value; entry: COc1cc(-n2c(C(C)(C)c3ccc(S(N)(=O)=O)c(Cl)c3)cnc2SCc2c(F)cc(C(=O)NCCC(=O)O)cc2F)ccc1F
Result :: < 100 nM

Query :: For the compound COc1cc(C(C)(C)c2cnc(SCc3c(F)ccc(OCCCNC(=N)N)c3Cl)n2-c2ccc(F)cc2)ccc1F , give its reported EC50.
Result :: < 100 nM

Query :: Give a short answer stating reported EC50 for CC(C)(c1ccc(Cl)c(Cl)c1)c1cnc(SCc2ccc(F)c(C(=O)NCC(=O)O)c2)n1-c1ccc(F)cc1 .
Result :: 100 to 1000 nM

----------
EC50 for assorted compounds
target: h-TGR5 (Homo sapiens); construct: expressed in transfected cells; assay: TGR5 cAMP Assay using Cisbio cAMP Dynamic2 htrf kit (hTGR5CRE-luc HEK 293 cells); assay type: cell-based; settings: h-TGR5 cAMP EC50, Table 1; read-out: cAMP (EC50)

COc1cc(C(C)(C)c2cnc(SCc3c(F)cc(C(=O)NO)cc3F)n2-c2ccc(F)cc2)ccc1Cl : < 0.1 µM
CC(C)(c1ccc(Cl)c(Cl)c1)c1cnc(SCc2ccc(-c3nnn[nH]3)cc2Cl)n1-c1ccc(F)cc1 : 0.1 to 1 µM
CCCNC(=O)NS(=O)(=O)c1ccc(CSc2ncc(C(C)(C)c3ccc(Cl)c(OC)c3)n2-c2ccc(F)cc2)c(Cl)c1 : < 0.1 µM
COc1cc(-n2c(C(C)(C)c3ccc(Cl)c(Cl)c3)cnc2SCc2ccc(C#CCNC(=N)N)c(C(=O)O)c2)ccc1F : 0.1 to 1 µM
CC(C)NC(=O)NS(=O)(=O)c1ccc(CSc2ncc(C(C)(C)c3ccc(C(F)F)c(F)c3)n2-c2ccc(F)cc2)c(Cl)c1 : 0.1 to 1 µM
COc1ccc(C(C)(C)c2cnc(SCc3ccc(C(N)=O)cc3F)n2-c2ccc(F)cc2)cc1OC : < 0.1 µM
CC(C)(c1ccc(Cl)c(Cl)c1)c1cnc(SCC2CCN(c3nnn[nH]3)CC2)n1-c1ccc(F)c(Cl)c1 : 0.1 to 1 µM

Query :: Dear colleague, please send me the reported EC50 for CC(C)(c1ccc(F)c(C#N)c1)c1cnc(SCc2ccc(S(=O)(=O)NC(=O)NN3CCCC3)cc2Cl)n1-c1ccc(F)cc1 when you can.
Result :: 0.1 to 1 µM

----------
Item-by-item account of pEC50
target: human TGR5 (h-TGR5) (Homo sapiens, UniProt Q8TDU6); construct: expressed in transfected cells; assay: TGR5/CRE-Luciferiase Assay (HEK 293 hTGR5/CRE-Luc cells); assay type: cell-based; conditions: h-TGR5 CRE-Luc EC50, Table 1; read-out: CRE-Luc (EC50)
pEC50: −log10 of the molar value.

CC(C)(c1ccc(Cl)c(Cl)c1)c1cnc(COc2ccc(C(N)=O)cn2)n1-c1ccc(F)cc1 : 6.00 to 7.00
CC(C)(c1ccc(F)c(F)c1)c1cnc(SCc2c(F)cccc2Cl)n1-c1ccc(F)cc1 : > 7.00
COc1cc(C(C)(C)c2cnc(SCc3c(F)ccc(OCCCNC(=N)N)c3Cl)n2-c2ccc(F)cc2)ccc1F : > 7.00
CC(C)(c1ccc(F)c(Cl)c1)c1cnc(SCc2ccc(S(=O)(=O)NC(=O)NN3CCCC3)cc2Cl)n1-c1ccc(F)cc1 : 6.00 to 7.00
COc1ccc(C(C)(C)c2cnc(SCc3cc(F)ccc3Cl)n2-c2ccc(F)cc2)cc1OC : > 7.00

Query :: For the compound CC(C)(c1ccc(F)c(F)c1)c1cnc(SCc2ccc(C(=O)O)cc2F)n1-c1ccc(F)cc1 , give its reported pEC50.
Result :: 6.00 to 7.00

Query :: Return the recorded pEC50 value; entry: COc1cc(C(C)(C)c2cnc(SCc3c(F)cc(C(=O)NCCCC(N)C(=O)O)cc3Cl)n2-c2ccc(F)cc2)ccc1Cl (stereo not drawn)
Result :: > 7.00

Query :: # return recorded pEC50 for entry COc1cc(F)ccc1-n1c(C(C)(C)c2ccc(Cl)c(Cl)c2)cnc1SCc1ccc(F)cc1Cl
Result :: 6.00 to 7.00

Query :: Give the measured pEC50 for CC(C)(c1ccc(S(N)(=O)=O)c(Cl)c1)c1cnc(SCc2c(F)cc(C(=O)O)cc2F)n1-c1ccc(F)cc1
Result :: > 7.00

Query :: Please look at this compound and report its pEC50: CC(C)(c1ccc(Cl)c(Cl)c1)c1cnc(SCc2ccc(F)cc2CO)n1-c1ccc(F)cc1
Result :: 5.00 to 6.00

Query :: Report pEC50, nothing else, for this compound: CC(C)(c1ccc(Cl)c(Cl)c1)c1cnc(SCc2c(F)cc(C(=O)NCCS(=O)(=O)O)cc2F)n1-c1ccc(F)c(Cl)c1
Result :: > 7.00

Query :: Tell me pEC50 reported for CC(C)(c1ccc(Cl)c(Cl)c1)c1cnc(SCC2CCNCC2)n1-c1ccc(F)cc1
Result :: 5.00 to 6.00

Query :: Item CC(C)(c1ccc(C(F)(F)F)cc1)c1cnc(SCc2c(F)cccc2Cl)n1-c1ccc(F)cc1 : provide pEC50
Result :: 6.00 to 7.00

Query :: Return pEC50 for the following compound: COc1cc(C(C)(C)c2cnc(SCc3ccc(S(=O)(=O)NC(=O)NN4CCCC4)cc3Cl)n2-c2ccc(F)cc2)ccc1Cl
Result :: 6.00 to 7.00

Query :: Fill in reported pEC50 for this entry: COc1cc(C(C)(C)c2cnc(SCc3c(F)cc(C#CCNC(=N)N)cc3F)n2-c2ccc(F)cc2)ccc1Cl
Result :: > 7.00

Query :: Fill in pEC50 for record CC(C)(c1ccc(Cl)c(Cl)c1)c1cnc(CS(=O)(=O)c2ccc(F)cc2Cl)n1-c1ccc(F)cc1
Result :: 5.00 to 6.00

Query :: Respond only with pEC50 recorded for CCN(CC)CCOc1cc(C(C)(C)c2cnc(SCc3c(F)cccc3Cl)n2-c2ccc(F)cc2)ccc1Cl
Result :: 6.00 to 7.00

Query :: Give the value of pEC50 reported for the following: COc1ccc(C(C)(C)c2cnc(CNc3ccc(Cl)c(Cl)c3)n2-c2ccc(F)cc2)cc1OC
Result :: > 7.00

----------
The entries below are paired with their reported EC50.
Target: h-TGR5 (Homo sapiens)
Construct: expressed in transfected cells
Sequence (Q8TDU6 1-330): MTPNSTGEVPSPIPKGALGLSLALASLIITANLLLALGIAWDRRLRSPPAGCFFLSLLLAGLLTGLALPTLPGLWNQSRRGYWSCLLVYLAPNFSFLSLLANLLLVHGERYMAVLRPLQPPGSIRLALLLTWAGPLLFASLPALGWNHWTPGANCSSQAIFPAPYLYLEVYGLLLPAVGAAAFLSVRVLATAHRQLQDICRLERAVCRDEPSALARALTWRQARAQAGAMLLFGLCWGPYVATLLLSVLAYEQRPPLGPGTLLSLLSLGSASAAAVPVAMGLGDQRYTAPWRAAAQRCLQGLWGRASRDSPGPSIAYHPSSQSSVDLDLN
Experiment: TGR5 cAMP Assay using Cisbio cAMP Dynamic2 htrf kit (hTGR5CRE-luc HEK 293 cells)
Format: cell-based
Details: h-TGR5 cAMP EC50, Table 1; read-out: cAMP (EC50)

CC(C)(c1ccc(Cl)c(Cl)c1)c1cnc(SCc2ccc(C(=O)NCC(=O)O)cc2F)n1-c1ccc(F)cc1 : 100 to 1000 nM
COc1cc(C(C)(C)c2cnc(SCc3c(F)cc(C(=O)O)cc3F)n2-c2ccc(F)cc2)ccc1Cl : < 100 nM
COc1cc(C(C)(C)c2cnc(SCc3ccc(S(=O)(=O)NC(=O)NC(C)C)cc3Cl)n2-c2ccc(F)cc2)ccc1Cl : < 100 nM

Query :: For COc1ccc(C(C)(C)c2cnc(SCc3ccc(S(N)(=O)=O)cc3Cl)n2-c2ccc(F)cc2)cc1Cl , write its EC50.
Result :: < 100 nM

Query :: Annotate the molecule COc1cc(-n2c(C(C)(C)c3ccc(Cl)c(Cl)c3)cnc2SCc2c(F)cc(C(=O)O)cc2F)ccc1F with its measured EC50.
Result :: < 100 nM

Query :: Provide measured EC50 value, entry: CC(C)(c1ccc(Cl)c(Cl)c1)c1cnc(SCc2cc(-c3nnn[nH]3)ccc2Cl)n1-c1ccc(F)cc1
Result :: 100 to 1000 nM

Query :: Please give measured EC50 of the following entry: CC(C)(c1ccc(Cl)c(Cl)c1)c1cnc(SCc2ccc(F)cc2Cl)n1-c1ccc(F)c(CO)c1
Result :: 100 to 1000 nM

Query :: Dear colleague, please send me the reported EC50 for CC(C)(c1ccc(Cl)c(Cl)c1)c1cnc(SCc2cc(C(=O)O)ccc2Cl)n1-c1ccc(F)cc1 when you can.
Result :: 100 to 1000 nM

Values from patent US8785488B2
